Quick list: Number of Gigasomes Produced per entry.
system: neuronal cell line derived from human neuroblastoma; experiment: Small molecule compound screen of gigasome production in neuronal monocultures; conditions: neuronal cells, dose 10000 nM, 24 hours

{"COMPOUND": "CCCn1cnc2c(NCc3ccc(C)s3)nc(N[C@H](CC)CO)nc21 [GV-58, reference compound]", "Number of Gigasomes Produced": "10-15"}
{"COMPOUND": "CC(C)(O)c1coc(S(=O)(=O)NC(=O)Nc2c3c(cc4c2CCC4)CCC3)c1 [MCC950 sodium]", "Number of Gigasomes Produced": "25-30"}
{"COMPOUND": "CC(C)[C@H](O)C(=O)N[C@@H](C)C(=O)N[C@@H]1C(=O)N(C)CCc2ccccc21", "Number of Gigasomes Produced": "20-25"}
{"COMPOUND": "CCN(CCO)CCCC(C)Nc1ccnc2cc(Cl)ccc12 (stereo not shown) [Hydroxychloroquine]", "Number of Gigasomes Produced": "20-25"}

###

test system: neuronal cell line derived from human neuroblastoma; assay: Small molecule compound screen of gigasome production in neuronal monocultures; settings: neuronal cells, dose 10000 nM, 24 hours
READOUT_KIND: Fold Change of Gigasomes Produced vs. DMSO

{"COMPOUND": "COC(=O)c1ccccc1NC(=O)c1ccc(F)cc1 [EXO1, reference compound]", "RESULT": "0.25-0.5"}
{"COMPOUND": "O=C(Nc1ccc(O)c(C(=O)O)c1)c1cccc(NC(=O)c2ccco2)c1", "RESULT": "0.5-0.75"}
{"COMPOUND": "CCCCc1ccc(NC(C)=O)c(C)c1", "RESULT": "0.75-1.0"}
{"COMPOUND": "N#C/C(=C\\c1cn(-c2ccccc2)c2ccccc12)C(=O)O [UK-5099, reference compound]", "RESULT": "0.25-0.5"}
{"COMPOUND": "O=C(/C=C/c1ccc(/C=C/C(=O)Nc2ccc(C3=NCCN3)cc2)cc1)Nc1ccc(C2=NCCN2)cc1 [GW4869, reference compound]", "RESULT": "0.25-0.5"}
{"COMPOUND": "CN[C@H](CC(=O)O)C(=O)O [NMDA, reference compound]", "RESULT": "0.25-0.5"}
{"COMPOUND": "CCCn1cnc2c(NCc3ccc(C)s3)nc(N[C@H](CC)CO)nc21 [GV-58, reference compound]", "RESULT": "0.25-0.5"}
{"COMPOUND": "CO/C1=C\\C(C)=C\\[C@@H](C)[C@@H](O)[C@@H](C)C/C(C)=C/C=C/[C@H](OC)[C@@H]([C@@H](C)[C@@H](O)[C@H](C)[C@@]2(O)C[C@@H](O)[C@H](C)[C@@H](C(C)C)O2)OC1=O [Bafilomycin A1, reference compound]", "RESULT": "3.0-4.0"}
{"COMPOUND": "CCCCCCCCCCCCCC[N+](C)(C)C.[Br-] [MiTMAB, reference compound]", "RESULT": "2.0-3.0"}

###

test system: cardiomyocytic cell line derived from human ventricular heart tissue; assay: Small molecule compound screen of gigasome production in cardiomyocytic monocultures; conditions: Table 23 (down-regulators); dose 10000 nM; cardiomyocytes;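 also: gigasomes shed into the culture medium were imaged by confocal microscopy and counted as round particles lacking nuclear signal, extrapolated to the whole well, fold change is relative to DMSO vehicle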
Items are presented alongside their recorded Fold Change of Gigasomes Produced vs. DMSO.
READOUT_KIND: Fold Change of Gigasomes Produced vs. DMSO

{"MOLECULE": "CCCCCCCCCCCCCCOc1ccc(C(=O)O)o1 [TOFA]", "TESTED_TARGET": "cardiomyocytic cell line derived from human ventricular heart tissue", "RESULT": "0.75-1.0"}
{"MOLECULE": "O=C1CSC(c2ccccc2Cl)c2cc(Cl)ccc2N1 (centres unmarked) [CGP37157, reference compound]", "TESTED_TARGET": "cardiomyocytic cell line derived from human ventricular heart tissue", "RESULT": "0.25-0.5"}
{"MOLECULE": "Fc1ccc(CNc2ncnc3ccc(F)cc23)cc1 [Spautin-1]", "TESTED_TARGET": "cardiomyocytic cell line derived from human ventricular heart tissue", "RESULT": "0.5-0.75"}
{"MOLECULE": "COC(=O)C1=C(C)NC(C)=C([N+](=O)[O-])C1c1ccccc1C(F)(F)F (centres unmarked) [Bay K 8644]", "TESTED_TARGET": "cardiomyocytic cell line derived from human ventricular heart tissue", "RESULT": "0.25-0.5"}
{"MOLECULE": "O=C(Oc1cccc(F)c1OC(=O)c1cccc(O)c1)c1cccc(O)c1 [WZB117, reference compound]", "TESTED_TARGET": "cardiomyocytic cell line derived from human ventricular heart tissue", "RESULT": "0.25-0.5"}
